This collection of values is drawn from patent US20220348564A1.

Target: human GLP-1 (Homo sapiens, UniProt P43220)
Construct: expressed in transfected cells
Sequence (P43220 24-463): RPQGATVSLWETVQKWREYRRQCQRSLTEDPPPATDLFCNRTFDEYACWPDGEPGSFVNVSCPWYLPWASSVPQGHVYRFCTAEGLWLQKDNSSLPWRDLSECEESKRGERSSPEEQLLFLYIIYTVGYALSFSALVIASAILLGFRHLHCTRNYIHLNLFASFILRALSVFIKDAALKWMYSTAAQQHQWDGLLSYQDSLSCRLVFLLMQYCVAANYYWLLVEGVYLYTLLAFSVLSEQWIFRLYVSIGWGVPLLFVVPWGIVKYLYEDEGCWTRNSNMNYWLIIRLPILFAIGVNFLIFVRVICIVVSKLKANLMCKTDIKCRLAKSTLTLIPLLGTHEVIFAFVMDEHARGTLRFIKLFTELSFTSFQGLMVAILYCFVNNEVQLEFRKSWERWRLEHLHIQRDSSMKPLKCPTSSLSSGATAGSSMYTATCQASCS
Assay: h-GLP-1 activity assay (Cisbio cAMP Gs dynamic kit, HTRF)
Assay type: cell-based
Conditions: HEK293 cells with stable expression of human GLP-1, relative EC50, 10 nM human GLP-1 = 100% response
Description: Human GLP-1 agonizing activity was detected in HEK293 cells with stable expression of human GLP-1 by Cisbio cAMP Gs dynamic kit (Catalog #62AM4PEC) according to manufacturer's protocol. Briefly, cells were collected and resuspended in assay buffer containing 0.1% BSA and 0.5 mM of IBMX at concentration to 2.5×10^5 cells/mL. […] HTRF signals were read at 665 and 615 nm with EnVision plate reader and calculated cAMP concentration by intrapolation to the standard curve. […]
attribute_measured: EC50

# annotated cases, reported EC50 shown
CC1(c2ccc(Cl)cc2F)Oc2cccc(-c3ccc(Cc4nc5ccc(C(=O)O)cc5n4C[C@@H]4CCO4)nc3)c2O1 (mixture of isomers) | < 20 nM
CC1(c2ccc(Cl)cc2F)Oc2cccc(-c3nc(Cc4nc5ccc(C(=O)O)cc5n4C[C@@H]4CCO4)cs3)c2O1 (mixture of isomers) | > 100 nM
C[C@@]1(c2ccc(C3CC3)cn2)Oc2cccc(C3=CC[C@H](Cc4nc5c(F)cc(C(=O)O)cc5n4C[C@@H]4CCO4)OC3)c2O1 (single isomer, unassigned) | < 20 nM

**Query** Identify the reported EC50 for the following entry. C[C@@]1(c2ccc(Cl)cn2)Oc2cccc(C3CCN(Cc4nc5ccc(C(=O)O)cc5n4C[C@@H]4CCO4)CC3(F)F)c2O1 (single isomer, unassigned)
**Result** < 20 nM

**Query** Identify the reported EC50 for the following entry. CC1(c2ccc(Cl)cc2F)Oc2cccc(-c3ncc(Cc4nc5ccc(C(=O)O)cc5n4C[C@@H]4CCO4)cn3)c2O1 (mixture of isomers)
**Result** 20 to 100 nM

**Query** Identify the reported EC50 for the following entry. CC1(c2ccc(Cl)cc2F)Oc2cccc(-c3ccn(Cc4nc5ccc(C(=O)O)cc5n4C[C@@H]4CCO4)c(=O)c3)c2O1 (mixture of isomers)
**Result** 20 to 100 nM

**Query** Identify the reported EC50 for the following entry. C[C@]1(c2ccc(Cl)cn2)Oc2cccc(C3=CC[C@H](Cc4nc5ccc(C(=O)O)cc5n4Cc4cncs4)OC3)c2O1 (single isomer, unassigned)
**Result** < 20 nM

**Query** Identify the reported EC50 for the following entry. CC1(c2ccc(Cl)cc2F)Oc2cccc(-c3cnc(Cc4nc5ccc(C(=O)O)cc5n4C[C@@H]4CCO4)nc3)c2O1 (mixture of isomers)
**Result** < 20 nM

**Query** Identify the reported EC50 for the following entry. C[C@]1(c2ccc(Cl)cc2F)Oc2cccc(C3=CC[C@@H](Cc4nc5ccc(C(=O)O)cc5n4C[C@@H]4CCO4)OC3)c2O1 (single isomer, unassigned)
**Result** 20 to 100 nM

**Query** Identify the reported EC50 for the following entry. C[C@@]1(c2ccc(Cl)cn2)Oc2cccc(C3(F)CCN(Cc4nc5ccc(C(=O)O)cc5n4C[C@@H]4CCO4)CC3)c2O1 (single isomer, unassigned)
**Result** 20 to 100 nM

**Query** Identify the reported EC50 for the following entry. CC1(c2ccc(Cl)cc2F)Oc2c(cccc2C2CCN(Cc3nc4ccc(C(=O)O)cc4n3C[C@@H]3CCO3)CC2)NC1=O (mixture of isomers)
**Result** 20 to 100 nM
